assay: Antioxidant activity assessed as ABTS free radical scavenging activity at 10 uM; type: functional
Listed molecules paired with reported Activity
Write it as a number; the unit % goes unstated.

Use the examples below as a reference point.
{"Smiles Code": "O=C(c1ccc(C(F)(F)F)cc1)c1nccc2c1[nH]c1ccccc12", "Quantity": "Activity", "Result Units": "%", "Observed": 7}
{"Smiles Code": "c1ccc(-c2nccc3c2[nH]c2ccccc23)cc1", "Quantity": "Activity", "Result Units": "%", "Observed": 12}
{"Smiles Code": "O=C1O[C@H]([C@@H](O)CO)C(O)=C1O", "Quantity": "Activity", "Result Units": "%", "Observed": 28}

[Q] Provide measured Activity value, entry: COc1ccc2[nH]c3c(-c4ccc(C)cc4)nccc3c2c1
[A] 13

[Q] Answer with the recorded Activity for the molecule listed here: Cc1ccccc1-c1nccc2c1[nH]c1ccccc12
[A] 15

[Q] Return Activity for the following molecule: O=C(c1ccccc1)c1nccc2c1[nH]c1ccccc12
[A] 6
